So I've got a bunch of binders here, and I need their DELFIA signal at 100 nM L1 values.
- measured target: T1, L1 (DV1-GV4), soluble human Vδ1/Vγ4 γδ TCR heterodimer in leucine zipper format (human)
- T1 construct: Biotinylated in the DELFIA ranking; also called Antigen L1 (TRDV1/TRGV4); human DV1-GV4; not shown: gamma chain: Vγ4 (TRGV4) domain on a TCR constant region, leucine zipper, histidine tag
- T1 sequence (main, as listed by the source): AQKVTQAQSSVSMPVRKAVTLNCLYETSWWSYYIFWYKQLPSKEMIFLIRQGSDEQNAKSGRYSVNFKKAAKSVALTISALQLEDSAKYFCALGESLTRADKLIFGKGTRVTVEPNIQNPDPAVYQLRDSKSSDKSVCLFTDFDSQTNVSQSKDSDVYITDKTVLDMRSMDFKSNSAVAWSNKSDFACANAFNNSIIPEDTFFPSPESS
- assay info: DELFIA, 100 nM biotinylated L1
Answers are plain numbers, in fluorescence units.

For orientation, consider the following solved cases.
binder	DELFIA signal at 100 nM L1, fluorescence units
1139_P01_E04 (antibody, IgG1, V domains shown, IgG1) VH: QVQLQQSGPGLVKPSQTLSLTCAISGDSVSSNSAAWNWIRQSPSRGLEWLGRTYYRSKWYNDYAVSVRSRITINPDTSKNQFSLQLNSVTPEDTAVYYCARSWNDAFDIWGQGTTVTVSS VL: DIVMTQSPSTLSASIGDRVTITCRAGQSISTWLAWYQQKPGKAPKLLIYDASSLESGVPLRFSGSGSGTDFTLTISSLQPEDFATYYCQQSYSTPLTFGGGTKVEIK	23800
1252_P01_C08 (antibody, IgG1, V domains shown, IgG1, lambda light chain) VH: EVQLLESGGGLVQPGRSLRLSCAASGFTVSSNYMSWVRQAPGKGLEWVSVIYSGGSTYYADSVKGRFTISRDNSKNTLYLQMNSLRAEDTAVYYCASPIELGAFDIWGQGTLVTVSS VL: SSYELTQPPSVSVAPGKTARITCGGNNIGSQSVHWYQQKPGQAPMLVIYYDSDRPSGIPERFSGSNSGNTATLTISRVEAGDEADYYCQVWDSSSDHVVFGGGTKLTVL	1980

In: Give its DELFIA signal at 100 nM L1 value. Item: 1251_P02_G10 (antibody, IgG1, V domains shown, IgG1) VH: EVQLVESGGGLVQPGGSLRLSCAASGFTFSDYYMSWIRQAPGKGLEWVSYISSSGSTIYYADSVKGRFTISRDNAKNSLYLQMNSLRAEDTAVYYCARHSWNDAFDIWGRGTLVTVSS VL: DIQMTQSPSSLSASVGDRVTITCRASQSISSHLNWYQQKPGKAPKLLIYAASSLQSGVPSRFSASGSGTDFTLTISSLQPEDFATYYCQQSYSTLLTFGGGTKVEIK
Out: 17100
